FYI, the data here is from the supplement of paper PMC5998384.

# maps each entry to its melting temperature
System: HeLa Kyoto;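 further: HeLa Kyoto cells synchronized by double thymidine or nocodazole block, proteins quantified by TMT10plex mass spectrometry, three independent biological replicates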
Test: melting temperature (median over replicates), in situ; higher = more thermally stable
Conditions: cell cycle stage: G1/S

>  <itemSequence>
MEPAEQPSELVSAEGRNRKAVLCQRCGSRVLQPGTALFSRRQLFLPSMRKKPALSDGSNPDGDLLQEHWLVEDMFIFENVGFTKDVGNIKFLVCADCEIGPIGWHCLDDKNSFYVALERVSHE [RABIF]

>  <melting temperature [°C]>
52.2

$$$$
>  <itemSequence>
MVSHSELRKLFYSADAVCFDVDSTVIREEGIDELAKICGVEDAVSEMTRRAMGGAVPFKAALTERLALIQPSREQVQRLIAEQPPHLTPGIRELVSRLQERNVQVFLISGGFRSIVEHVASKLNIPATNVFANRLKFYFNGEYAGFDETQPTAESGGKGKVIKLLKEKFHFKKIIMIGDGATDMEACPPADAFIGFGGNVIRQQVKDNAKWYITDFVELLGELEE [PSPH]

>  <melting temperature [°C]>
56.6

$$$$
>  <itemSequence>
MAASGEPQRQWQEEVAAVVVVGSCMTDLVSLTSRLPKTGETIHGHKFFIGFGGKGANQCVQAARLGAMTSMVCKVGKDSFGNDYIENLKQNDISTEFTYQTKDAATGTASIIVNNEGQNIIVIVAGANLLLNTEDLRAAANVISRAKVMVCQLEITPATSLEALTMARRSGVKTLFNPAPAIADLDPQFYTLSDVFCCNESEAEILTGLTVGSAADAGEAALVLLKRGCQVVIITLGAEGCVVLSQTEPEPKHIPTEKVKAVDTTGAGDSFVGALAFYLAYYPNLSLEDMLNRSNFIAAVSVQAAGTQSSYPYKKDLPLTLF [RBKS]

>  <melting temperature [°C]>
57.9

$$$$
>  <itemSequence>
MLRPAGLWRLCRRPWAARVPAENLGRREVTSGVSPRGSTSPRTLNIFDRDLKRKQKNWAARQPEPTKFDYLKEEVGSRIADRVYDIPRNFPLALDLGCGRGYIAQYLNKETIGKFFQADIAENALKNSSETEIPTVSVLADEEFLPFKENTFDLVVSSLSLHWVNDLPRALEQIHYILKPDGVFIGAMFGGDTLYELRCSLQLAETEREGGFSPHISPFTAVNDLGHLLGRAGFNTLTVDTDEIQVNYPGMFELMEDLQGMGESNCAWNRKALLHRDTMLAAAAVYREMYRNEDGSVPATYQIYYMIGWKYHESQARPAERGSATVSFGELGKINNLMPPGKKSQ [NDUFAF5]

>  <melting temperature [°C]>
53.5

$$$$
>  <itemSequence>
MAATAREDGASGQERGQRGCEHYDRGCLLKAPCCDKLYTCRLCHDNNEDHQLDRFKVKEVQCINCEKIQHAQQTCEECSTLFGEYYCDICHLFDKDKKQYHCENCGICRIGPKEDFFHCLKCNLCLAMNLQGRHKCIENVSRQNCPICLEDIHTSRVVAHVLPCGHLLHRTCYEEMLKEGYRCPLCMHSALDMTRYWRQLDDEVAQTPMPSEYQNMTVDILCNDCNGRSTVQFHILGMKCKICESYNTAQAGGRRISLDQQ [RCHY1]

>  <melting temperature [°C]>
51.2

$$$$
>  <itemSequence>
MSIMSYNGGAVMAMKGKNCVAIAADRRFGIQAQMVTTDFQKIFPMGDRLYIGLAGLATDVQTVAQRLKFRLNLYELKEGRQIKPYTLMSMVANLLYEKRFGPYYTEPVIAGLDPKTFKPFICSLDLIGCPMVTDDFVVSGTCAEQMYGMCESLWEPNMDPDHLFETISQAMLNAVDRDAVSGMGVIVHIIEKDKITTRTLKARMD [PSMB3]

>  <melting temperature [°C]>
59.9

$$$$
